pIC50: −log10 of the molar value.
Below are compounds with their pIC50 as measured on Acetylcholinesterase (Homo sapiens).
Sequence (P22303 whole entry): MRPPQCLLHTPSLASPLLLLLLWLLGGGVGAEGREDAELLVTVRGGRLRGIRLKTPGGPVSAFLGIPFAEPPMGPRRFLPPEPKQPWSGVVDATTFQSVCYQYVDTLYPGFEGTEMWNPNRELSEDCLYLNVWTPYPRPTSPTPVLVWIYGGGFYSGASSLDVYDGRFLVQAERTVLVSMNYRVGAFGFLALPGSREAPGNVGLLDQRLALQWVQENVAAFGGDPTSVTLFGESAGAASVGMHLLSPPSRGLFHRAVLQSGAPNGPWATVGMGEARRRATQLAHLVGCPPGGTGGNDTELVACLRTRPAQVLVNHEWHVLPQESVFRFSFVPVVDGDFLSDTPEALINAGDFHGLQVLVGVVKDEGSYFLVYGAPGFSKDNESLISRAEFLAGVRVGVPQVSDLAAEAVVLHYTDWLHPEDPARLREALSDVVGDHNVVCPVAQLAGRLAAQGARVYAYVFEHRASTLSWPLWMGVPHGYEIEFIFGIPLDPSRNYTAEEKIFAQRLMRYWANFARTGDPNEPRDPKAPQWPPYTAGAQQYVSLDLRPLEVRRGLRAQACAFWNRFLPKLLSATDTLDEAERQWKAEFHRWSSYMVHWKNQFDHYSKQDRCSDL

SMI	TARGET_OR_SYSTEM	pIC50
O=C1C(=O)N(C(=O)c2ccccc2)c2ccc(CNc3ccc(Br)cc3)cc21	Acetylcholinesterase (Homo sapiens)	6.40
COc1ccc(NCc2ccc3c(c2)C(=O)C(=O)N3C(=O)c2ccccc2)cc1	Acetylcholinesterase (Homo sapiens)	6.77
Cc1ccc2c(c1)C(=O)C(=O)N2Cc1ccccc1[N+](=O)[O-]	Acetylcholinesterase (Homo sapiens)	6.70
CN1CCN(Cc2ccc3c(c2)C(=O)C(=O)N3C(=O)c2ccccc2)CC1	Acetylcholinesterase (Homo sapiens)	7.32

---

Record type: IC50 measurement. Applies to: cGMP-specific 3',5'-cyclic phosphodiesterase (Homo sapiens, UniProt O76074)
PROPERTY_LABEL: IC50 (µM)

SMI	TARGET_OR_SYSTEM	COMPARATOR	READOUT_VALUE
O=C1C(=O)N(C(=O)c2ccccc2)c2ccc(CN3CCCCC3)cc21	cGMP-specific 3',5'-cyclic phosphodiesterase (Homo sapiens, UniProt O76074)	=	50
Cc1ccc2c(c1)CC(=O)N2C(=O)c1ccccc1	cGMP-specific 3',5'-cyclic phosphodiesterase (Homo sapiens, UniProt O76074)	=	91.2
CCN(CC)Cc1ccc(NC(=O)c2ccccc2)c(C(=O)C(=O)N(CC)CC)c1	cGMP-specific 3',5'-cyclic phosphodiesterase (Homo sapiens, UniProt O76074)	=	158
COc1ccc(NCc2ccc3c(c2)C(=O)C(=O)N3C(=O)c2ccccc2)cc1	cGMP-specific 3',5'-cyclic phosphodiesterase (Homo sapiens, UniProt O76074)	=	100
O=C1C(=O)N(Cc2ccc(Br)cc2)c2ccc(Br)cc21	cGMP-specific 3',5'-cyclic phosphodiesterase (Homo sapiens, UniProt O76074)	=	131
O=C(O)CCC(=O)NCc1ccc2c(c1)CC(=O)N2C(=O)c1ccccc1	cGMP-specific 3',5'-cyclic phosphodiesterase (Homo sapiens, UniProt O76074)	=	17.6
CN1CCN(Cc2ccc3c(c2)C(=O)C(=O)N3C(=O)c2ccccc2)CC1	cGMP-specific 3',5'-cyclic phosphodiesterase (Homo sapiens, UniProt O76074)	>	1000
Cc1ccc2c(c1)C(=O)C(=O)N2C(=O)N(C)C	cGMP-specific 3',5'-cyclic phosphodiesterase (Homo sapiens, UniProt O76074)	=	100
Cc1ccc2c(c1)C(=O)C(=O)N2C(=O)c1ccccc1	cGMP-specific 3',5'-cyclic phosphodiesterase (Homo sapiens, UniProt O76074)	=	746
Cc1ccc2c(c1)C(=O)C(=O)N2Cc1ccccc1[N+](=O)[O-]	cGMP-specific 3',5'-cyclic phosphodiesterase (Homo sapiens, UniProt O76074)	=	200
